Hello, the source for this data is patent EP0908457B1, in case you need it.

- Tested on: Oryza sativa, (L.) Tebonnet
- assay info: Rice tolerance to post-transplant applications under flooded paddy conditions (Example 187), ORYSAT (Rice, Tebonnet)
- settings: Rate 0.5000 kg/ha, rated three to four weeks after treatment
measured attribute: ORYSAT herbicidal effect rating
Could you respond with only the numeric value?

Q) Supply ORYSAT herbicidal effect rating value. Item: Cn1c(C(F)(F)F)cc(=O)n(-c2ccc3snc(-c4ccc(OCC(=O)OC(C)(C)C)cc4)c3c2)c1=O
A) 3.0

Q) Supply ORYSAT herbicidal effect rating value. Item: Cn1c(C(F)(F)F)cc(=O)n(-c2ccc3snc(CS(=O)(=O)CC(=O)O)c3c2)c1=O
A) 0.0

Q) Supply ORYSAT herbicidal effect rating value. Item: Cn1c(C(F)(F)F)cc(=O)n(-c2ccc3snc(CSCC(=O)O)c3c2)c1=O
A) 4.0

Q) Supply ORYSAT herbicidal effect rating value. Item: C=Cc1nsc2ccc(-n3c(=O)cc(C(F)(F)F)n(C)c3=O)cc12
A) 9.0

----------
- System: Oryza sativa, (L.) Tebonnet
- assay info: Rice tolerance to post-transplant applications under flooded paddy conditions (Example 187), ORYSAT (Rice, Tebonnet)
- settings: Rate 0.1250 kg/ha, rated three to four weeks after treatment
measured attribute: ORYSAT herbicidal effect rating
Could you respond with only the numeric value?

Q) Supply ORYSAT herbicidal effect rating value. Item: CO/N=C/c1nsc2ccc(-n3c(=O)cc(C(F)(F)F)n(C)c3=O)cc12 [Example 277]
A) 7.0

Q) Supply ORYSAT herbicidal effect rating value. Item: Cc1ccc(OCC(=O)OC(C)(C)C)c(-c2noc3ccc(-n4c(=O)cc(C(F)(F)F)n(C)c4=O)c(Cl)c23)c1 [Example 265]
A) 0.0

Q) Supply ORYSAT herbicidal effect rating value. Item: Cn1c(C(F)(F)F)cc(=O)n(-c2ccc3snc(COCC(=O)NS(C)(=O)=O)c3c2)c1=O [Example 294]
A) 0.0

Q) Supply ORYSAT herbicidal effect rating value. Item: Cn1c(C(F)(F)F)cc(=O)n(-c2ccc3snc(C=C(Cl)Cl)c3c2)c1=O [Example 287]
A) 3.0

Q) Supply ORYSAT herbicidal effect rating value. Item: COc1c(-c2nsc3ccc(-n4c(=O)cc(C(F)(F)F)n(C)c4=O)cc23)ccc(C)c1C [Example 267]
A) 4.5

Q) Supply ORYSAT herbicidal effect rating value. Item: Cn1c(C(F)(F)F)cc(=O)n(-c2ccc3snc(/C=C/C=O)c3c2)c1=O [Example 291]
A) 0.0

Q) Supply ORYSAT herbicidal effect rating value. Item: CNC.Cn1c(C(F)(F)F)cc(=O)n(-c2ccc3snc(COCC(=O)O)c3c2)c1=O [Example 296]
A) 0.0

Q) Supply ORYSAT herbicidal effect rating value. Item: CC(=O)/C=C/c1nsc2ccc(-n3c(=O)cc(C(F)(F)F)n(C)c3=O)cc12 [Example 285]
A) 7.0

----------
What herbicidal effect rating, SAGPY was measured for each of the following?
- Tested on: Sagittaria pygmaea, L.
- assay info: Preemergence weed control under flooded paddy conditions, SAGPY (Arrowhead (Pygmaea)); also: meaning of each grade not given here
- Format: in vivo
- settings: Rate 0.1250 kg/ha; preemergence, flooded paddy; rated 3-4 weeks after treatment

Q) Supply herbicidal effect rating, SAGPY value. Item: CC(Oc1ccccc1-c1nsc2ccc(-n3c(=O)cc(C(F)(F)F)n(C)c3=O)cc12)C(=O)N(C)C (stereo not shown)
A) 0.0

Q) Supply herbicidal effect rating, SAGPY value. Item: CNC(=O)COc1ccc(C)cc1-c1nsc2ccc(-n3c(=O)cc(C(F)(F)F)n(C)c3=O)cc12
A) 1.0

Q) Supply herbicidal effect rating, SAGPY value. Item: COCC(C)OC(=O)C(C)(C)Oc1ccc(C)cc1-c1nsc2ccc(-n3c(=O)cc(C(F)(F)F)n(C)c3=O)cc12 (stereo not shown)
A) 0.0

Q) Supply herbicidal effect rating, SAGPY value. Item: CCS(=O)(=O)NC(=O)COc1ccc(C)cc1-c1nsc2ccc(-n3c(=O)cc(C(F)(F)F)n(C)c3=O)cc12
A) 0.0

Q) Supply herbicidal effect rating, SAGPY value. Item: CC(C)S(=O)(=O)NC(=O)COc1ccccc1-c1nsc2ccc(-n3c(=O)cc(C(F)(F)F)n(C)c3=O)cc12
A) 2.0

Q) Supply herbicidal effect rating, SAGPY value. Item: Cc1ccc(OCC(N)=O)c(-c2nsc3ccc(-n4c(=O)cc(C(F)(F)F)n(C)c4=O)cc23)c1
A) 1.0

Q) Supply herbicidal effect rating, SAGPY value. Item: Cc1ccc(OC(C)(C)C(=O)OCC(F)(F)F)c(-c2nsc3ccc(-n4c(=O)cc(C(F)(F)F)n(C)c4=O)cc23)c1
A) 4.0
